Recorded values, source patent US9353090B2.

# experimental.protocol: Human liver microsome (HLM) metabolic stability assay
# Format: in vitro ADME
# measurement.parameters: human liver microsomes
Listed compounds paired with reported Metabolic stability (Qh %), % hepatic blood flow

Look over these answered cases.
INSERT INTO assay_data (compound, data_value) VALUES
  ('CO[C@H]1CN(c2nc(-c3cccc(C)c3OCc3ccc4c(c3C)CCN(C3COC3)CC4)cs2)CC[C@H]1C(=O)O', '<24%'),
  ('CO[C@H]1CN(c2nc(-c3cccc(C)c3OCc3ccc4c(c3C)CCN(C3CCOCC3)C4)cs2)CC[C@H]1C(=O)O', '<24%'),
  ('Cc1cccc(-c2csc(N3C[C@@H]4C[C@]4(C(=O)O)C3)n2)c1OCc1ccc2c(c1C)CCN(C1CCOCC1)CC2', '<24%'),
  ('CO[C@H]1CN(c2nc(-c3cccc(Cl)c3OCc3ccc4c(c3C)CCN(C3CCOCC3)C4)cs2)CC[C@H]1C(=O)O', '<24%');

Lab note: next compound to report on.
Cc1c(COc2ccccc2-c2ccnc(N3C[C@@H]4C[C@]4(C(=O)O)C3)n2)ccc2c1CCN(C1CCOCC1)C2 yielded Metabolic stability (Qh %), % hepatic blood flow of <24%

---

# target.of.assay: human soluble guanylate cyclase alpha 1 and beta 1 subunits (sGC) (Homo sapiens (Human), UniProt Q02108+Q02153)
# Sequence (Q02108 whole entry partner): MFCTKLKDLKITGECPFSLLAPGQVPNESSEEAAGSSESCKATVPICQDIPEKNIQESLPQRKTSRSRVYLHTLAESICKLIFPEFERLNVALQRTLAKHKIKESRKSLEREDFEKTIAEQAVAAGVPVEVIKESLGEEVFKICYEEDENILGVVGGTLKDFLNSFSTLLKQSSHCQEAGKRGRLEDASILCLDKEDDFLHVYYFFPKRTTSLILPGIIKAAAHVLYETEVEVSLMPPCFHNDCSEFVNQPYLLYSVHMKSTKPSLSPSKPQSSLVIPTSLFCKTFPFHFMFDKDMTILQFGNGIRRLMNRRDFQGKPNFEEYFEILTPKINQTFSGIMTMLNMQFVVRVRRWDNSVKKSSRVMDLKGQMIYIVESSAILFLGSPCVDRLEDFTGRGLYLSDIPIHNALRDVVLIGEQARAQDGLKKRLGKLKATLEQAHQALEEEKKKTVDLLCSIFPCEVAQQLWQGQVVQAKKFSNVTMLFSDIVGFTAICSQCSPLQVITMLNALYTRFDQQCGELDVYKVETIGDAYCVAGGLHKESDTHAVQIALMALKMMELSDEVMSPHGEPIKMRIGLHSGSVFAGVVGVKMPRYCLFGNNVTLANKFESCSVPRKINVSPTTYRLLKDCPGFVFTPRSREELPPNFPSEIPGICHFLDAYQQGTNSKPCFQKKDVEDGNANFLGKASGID
# Sequence (Q02153 whole entry): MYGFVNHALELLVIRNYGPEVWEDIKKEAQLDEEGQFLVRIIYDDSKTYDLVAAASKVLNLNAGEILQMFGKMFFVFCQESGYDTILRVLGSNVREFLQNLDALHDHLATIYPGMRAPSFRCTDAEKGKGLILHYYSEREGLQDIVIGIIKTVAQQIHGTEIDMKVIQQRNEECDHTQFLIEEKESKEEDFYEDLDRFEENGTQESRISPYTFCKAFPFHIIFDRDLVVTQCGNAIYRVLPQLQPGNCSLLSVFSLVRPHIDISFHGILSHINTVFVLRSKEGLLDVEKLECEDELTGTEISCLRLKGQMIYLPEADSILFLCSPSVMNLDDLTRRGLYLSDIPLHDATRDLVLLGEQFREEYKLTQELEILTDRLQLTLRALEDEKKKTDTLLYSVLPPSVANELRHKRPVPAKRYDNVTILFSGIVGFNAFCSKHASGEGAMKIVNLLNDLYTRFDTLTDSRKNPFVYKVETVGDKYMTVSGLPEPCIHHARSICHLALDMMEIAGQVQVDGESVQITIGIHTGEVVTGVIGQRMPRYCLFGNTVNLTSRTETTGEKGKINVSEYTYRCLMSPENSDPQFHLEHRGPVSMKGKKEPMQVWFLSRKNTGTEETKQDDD
# experimental.protocol: sGC cellular activator assay (cGMP, HTRF), in the presence and absence of 50% human serum
# measurement.parameters: CHO cells stably expressing human sGC alpha 1/beta 1, preincubated with 40 microM ODQ; cGMP by HTRF; Table 2 does not state whether with or without 50% human serum
recorded.metric: pEC50
Scale: negative log10 of molar concentration, which is what pEC50 denotes.

INSERT INTO results (molecule, recorded_metric, data_value) VALUES
  ('COC[C@H]1N(c2cccc(-c3cccc(F)c3OCc3ccc4c(c3C)CCN(C3CCOCC3)CC4)n2)C[C@@H]2C[C@@]21C(=O)O', 'pEC50', 7.47),
  ('CO[C@@H]1CN(c2cccc(-c3cccc(C)c3OCc3cc(C)c4c(c3)CN(C3CCOCC3)C4)n2)CC[C@@H]1C(=O)O', 'pEC50', 7.62),
  ('CO[C@@H]1CN(c2cccc(-c3cc(C)ccc3OCc3cc(C)c4c(c3)CCN(C3CCOC3)C4)n2)CC[C@@H]1C(=O)O (stereo partly shown) [Compound 77]', 'pEC50', 7.15),
  ('Cc1ccc(OCc2cnc3c(c2)CCN(C2CCOCC2)C3)c(-c2csc(N3CC[C@@]4(C(=O)O)C[C@H]4C3)n2)c1', 'pEC50', 7.20),
  ('CCO[C@H]1CN(c2nccc(-c3cccc(C)c3OCc3ccc4c(c3C)CCN(C3CCOCC3)CC4)n2)CC[C@H]1C(=O)O', 'pEC50', 7.49),
  ('COc1cc(COc2c(C)cccc2-c2csc(N3CC[C@H](C(=O)O)[C@H](OC)C3)n2)cc2c1CN(C1CCOCC1)CC2', 'pEC50', 7.33);

Cc1ccc(OCc2cc(C)c3c(c2)CCN(CC2COCCO2)C3)c(-c2csc(N3CC[C@@]4(C(=O)O)C[C@H]4C3)n2)c1 (stereo partly shown) yielded pEC50 of 8.22

CO[C@H]1CN(c2nc(-c3cccc(C)c3OCc3cc(C)c4c(c3)CCN(CC3COCCO3)C4)cs2)CC[C@H]1C(=O)O (single isomer, unassigned) [Compound 169] yielded pEC50 of 7.54

CO[C@H]1CN(c2nc(-c3cc(C)ccc3OCc3cc(C)c4c(c3F)CCN(C3CCOCC3)C4)cs2)CC[C@H]1C(=O)O yielded pEC50 of 8.05

Cc1c(COc2ccccc2-c2cccc(N3CC[C@@]4(C(=O)O)C[C@H]4C3)n2)ccc2c1CCN(C1CCC1)C2 yielded pEC50 of 8.52

CO[C@H]1CN(c2nc(-c3cccc(Cl)c3OCc3ccc4c(c3)[C@H](C)CN(C3COC3)CC4)cs2)CC[C@H]1C(=O)O yielded pEC50 of 8.15

Cc1ccc(OCc2ccc3c(c2C)CCN(C2CCOCC2)C3)c(-c2cccc(N3C[C@@H]4C[C@]4(C(=O)O)C3)n2)c1 yielded pEC50 of 7.35

COC[C@H]1N(c2cccc(-c3cccc(F)c3OCc3cc(C)c4c(c3)CCN(C3CCOCC3)C4)n2)C[C@@H]2C[C@@]21C(=O)O yielded pEC50 of 6.87

---

# experimental.protocol: Human liver microsome (HLM) metabolic stability assay
# Format: in vitro ADME
# measurement.parameters: human liver microsomes
# Procedure: The 5 time point, high-throughput human liver microsome (HLM) metabolic stability assay is designed to determine in vitro compound metabolism. Compounds are incubated with HLMs at a concentration of 1 uM, at 37° C., for a total of 60 min. The percent of compound remaining at 5, 15, 30, and 60 min is used to calculate the t1/2 (min), CLint (mL/min/kg), CLh (mL/min/kg), and % Qh. […] The plates are analyzed using LC/MS/MS with electron spray ionization (ESI) and the previously determined MRM transitions. […]
Would you please tag the item Met when its Metabolic stability (Qh %), % hepatic blood flow is 40% or above, and Not met when it is below?

INSERT INTO assay_data (compound, assigned_class) VALUES
  ('CCO[C@H]1CN(c2cccc(-c3cccc(Cl)c3OCc3cc(C)c4c(c3)CCN(C3CCOCC3)C4)n2)CC[C@H]1C(=O)O', 'Met'),
  ('Cc1ccc(OCc2ccc3c(c2C)CCN(C2COC2)CC3)c(-c2cccc(N3C[C@@H]4C[C@]4(C(=O)O)C3)n2)c1', 'Met'),
  ('Cc1cc(COc2c(C)cccc2-c2csc(N3CC[C@@]4(C(=O)O)C[C@H]4C3)n2)c(C)c2c1CN(C1CCCOC1)CC2 (stereo partly shown)', 'Met');

Data request: Could you verify whether the entry Cc1ccc(OCc2ccc3c(c2C)CCN(C2CCOCC2)C3=O)c(-c2cccc(N3CC[C@@]4(C(=O)O)C[C@H]4C3)n2)c1 shows Metabolic stability (Qh %), % hepatic blood flow of no less than 40%?
Data returned: Met

Data request: Could you verify whether the entry CO[C@H]1CN(c2nc(-c3cccc(C)c3OCc3ccc4c(c3)[C@H](C)CN(C3CCOCC3)CC4)cs2)CC[C@H]1C(=O)O shows Metabolic stability (Qh %), % hepatic blood flow of no less than 40%?
Data returned: Not met

Data request: Could you verify whether the entry CCO[C@H]1CN(c2nccc(-c3cccc(C)c3OCc3ccc4c(c3C)CCN(C3CCOCC3)CC4)n2)CC[C@H]1C(=O)O shows Metabolic stability (Qh %), % hepatic blood flow of no less than 40%?
Data returned: Not met

Data request: Could you verify whether the entry CO[C@H]1CN(c2cccc(-c3cccc(C)c3OCc3ccc4c(c3F)CCN(C3CCOCC3)CC4)n2)CC[C@H]1C(=O)O shows Metabolic stability (Qh %), % hepatic blood flow of no less than 40%?
Data returned: Not met

Data request: Could you verify whether the entry Cc1c(COc2ccccc2-c2cccc(N3CC[C@@]4(C(=O)O)C[C@H]4C3)n2)ccc2c1CCN(CC1COCCO1)C2 (stereo partly shown) shows Metabolic stability (Qh %), % hepatic blood flow of no less than 40%?
Data returned: Not met

Data request: Could you verify whether the entry Cc1ccc(OCc2cc(C)c3c(c2)CCN(C2CCOCC2)C3)c(-c2cccc(N3C[C@@H]4C[C@]4(C(=O)O)C3)n2)c1 shows Metabolic stability (Qh %), % hepatic blood flow of no less than 40%?
Data returned: Not met

Data request: Could you verify whether the entry CO[C@@H]1CN(c2nc(-c3cccc(C)c3OCc3ccc4c(c3F)CCN(C3COC3)CC4)cs2)CC[C@@H]1C(=O)O shows Metabolic stability (Qh %), % hepatic blood flow of no less than 40%?
Data returned: Not met

Data request: Could you verify whether the entry CO[C@@H]1CN(c2cccc(-c3cccc(C)c3OCc3cc(C)c4c(c3)CCN(C3COC3)CC4)n2)CC[C@@H]1C(=O)O shows Metabolic stability (Qh %), % hepatic blood flow of no less than 40%?
Data returned: Not met

Data request: Could you verify whether the entry CO[C@H]1CN(c2nc(-c3cccc(C)c3OCc3ccc4c(c3C)CCN(C3COC3)C4)cs2)CC[C@H]1C(=O)O shows Metabolic stability (Qh %), % hepatic blood flow of no less than 40%?
Data returned: Not met

Data request: Could you verify whether the entry Cc1ccc(OCc2ccc3c(c2)CCN(C2CCOCC2)C3)c(-c2cccc(N3CC[C@@]4(C(=O)O)C[C@H]4C3)n2)c1 shows Metabolic stability (Qh %), % hepatic blood flow of no less than 40%?
Data returned: Not met

---

# experimental.protocol: physchem
# measurement.parameters: pH 2.2, aqueous buffer, kinetic from dmso stock, Solubility (pH 2.2)
recorded.metric: solubility at 24 h

Look over these answered cases.
INSERT INTO measurements (compound_structure_string, recorded_metric, data_value) VALUES
  ('CO[C@H]1CN(c2nc(-c3cccc(Cl)c3OCc3ccc4c(c3)[C@H](C)CN(C3COC3)CC4)cs2)CC[C@H]1C(=O)O', 'solubility at 24 h', '110 µg/mL'),
  ('CO[C@H]1CN(c2cccc(-c3cccc(Cl)c3OCc3cc(C)c4c(c3)CCN(C3CCOCC3)C4)n2)CC[C@H]1C(=O)O', 'solubility at 24 h', '147 µg/mL'),
  ('Cc1cccc(-c2cccc(N3C[C@@H]4C[C@]4(C(=O)O)C3)n2)c1OCc1ccc2c(c1)CCN(C1CCOCC1)CC2', 'solubility at 24 h', '110 µg/mL'),
  ('COC[C@H]1N(c2cccc(-c3cccc(C)c3OCc3cc(C)c4c(c3)OCCN(C3CCOCC3)C4)n2)C[C@@H]2C[C@@]21C(=O)O', 'solubility at 24 h', '115 µg/mL'),
  ('Cc1ccc(OCc2ccc3c(c2C)CCN(C2COC2)CC3)c(-c2csc(N3C[C@@H]4C[C@]4(C(=O)O)C3)n2)c1', 'solubility at 24 h', '98 µg/mL');

Cc1cccc(-c2csc(N3C[C@@H]4C[C@]4(C(=O)O)C3)n2)c1OCc1ccc2c(c1C)CCN(C1CCC1)C2 yielded solubility at 24 h of 100 µg/mL
